# Tested on: A549/ATCC
# assay remarks: NCI cytotoxicity screen (SRB)
# Type: cell-based, human
# measurement setup: 48 h; Non-Small Cell Lung Cancer A549/ATCC
outcome measure: IC50 (µM)

molecule: CN(C)CCNC(=O)c1nc(NC(=O)c2nc(NC(=O)c3nc(NC(=O)c4ccc(N(CCCl)CCCl)cc4)cn3C)cn2C)cn1C [Compound 7]
outcome measure: IC50
data value: 5.64

molecule: CN(C)CCNC(=O)c1nc(NC(=O)c2nc(NC(=O)CCCc3ccc(N(CCCl)CCCl)cc3)cn2C)cn1C [Compound 9]
outcome measure: IC50
data value: 78.5

molecule: CN(C)CCNC(=O)c1nc(NC(=O)c2nc(NC(=O)c3nc(NC(=O)CCCc4ccc(N(CCCl)CCCl)cc4)cn3C)cn2C)cn1C [Compound 10]
outcome measure: IC50
data value: 10.7

molecule: CN(C)CCNC(=O)c1nc(NC(=O)c2nc(NC(=O)c3ccc(N(CCCl)CCCl)cc3)cn2C)cn1C [Compound 6]
outcome measure: IC50
data value: 58.8
